quantity.name: melting point

Reference set (7 entries):
ONc1cccc(OCc2nc3ccccc3s2)c1 :: 112 to 114 °C
O=C1NC(=O)C(c2cn3c4c(cccc24)CCC3)=C1c1ccc(F)cc1 :: 234 to 235 °C
CSc1cc(C)nc(SC)c1NC(=O)CCCCCSc1nc2ccccc2s1 :: 123 to 125 °C
O=C(C(Cl)=CO)c1ccc(Cl)cc1Cl :: 162 °C
O=[N+]([O-])c1ccc(Oc2cccc3c(Oc4ccc([N+](=O)[O-])c([N+](=O)[O-])c4)cccc23)cc1[N+](=O)[O-] :: 224 to 228 °C
O=C(/C=C/c1ccc(Br)cc1)c1cnc2sccn12 :: 213 to 215 °C
CCOC(=O)c1cn(-c2ccccc2)c2c(F)c(F)c(F)cc2c1=O :: 190 to 192 °C

Entry "CCOC(=O)c1ccc(CCN2CCN(S(=O)(=O)c3ccccc3)CC2)cc1" ; melting point = 156 to 157 °C
